# Study system: Beta-secretase 1 (Homo sapiens, UniProt P56817)
# Sequence (P56817 whole entry): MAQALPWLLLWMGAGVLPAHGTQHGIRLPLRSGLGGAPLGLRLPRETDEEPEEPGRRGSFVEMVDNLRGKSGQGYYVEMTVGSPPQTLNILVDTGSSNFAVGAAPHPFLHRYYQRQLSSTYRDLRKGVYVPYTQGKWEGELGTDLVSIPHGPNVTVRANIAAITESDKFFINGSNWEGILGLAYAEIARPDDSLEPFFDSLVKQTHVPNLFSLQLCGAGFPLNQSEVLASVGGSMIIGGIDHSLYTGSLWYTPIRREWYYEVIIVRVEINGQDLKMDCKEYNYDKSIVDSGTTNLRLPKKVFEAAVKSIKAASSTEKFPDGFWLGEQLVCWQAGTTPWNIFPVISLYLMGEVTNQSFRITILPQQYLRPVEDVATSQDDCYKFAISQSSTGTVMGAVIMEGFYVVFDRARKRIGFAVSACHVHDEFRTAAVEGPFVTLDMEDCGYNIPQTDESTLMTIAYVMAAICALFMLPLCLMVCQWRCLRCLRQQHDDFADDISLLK
# Assay remarks: Inhibition of BACE expressed in HEK293 cells
pEC50 overview
Lab note: report pEC50 as minus log10 of the concentration in molar units, number only.

Below, each entry is followed by its recorded pEC50 result.
- Structure notation: "CCCC(CCC)S(=O)(=O)C[C@@H](NC(=O)OCc1cccnc1)C(=O)N[C@@H](Cc1cc(F)cc(F)c1)[C@H](O)CNCc1cccc(CC)c1"
  Measurement name: "pEC50"
  Readout value: 8.30
- Structure notation: "CCCCS(=O)(=O)C[C@@H](NC(=O)c1cnccc1O)C(=O)N[C@@H](Cc1cc(F)cc(F)c1)[C@H](O)CNCc1cccc(CC)c1"
  Measurement name: "pEC50"
  Readout value: 7.62
- Structure notation: "CCCCS(=O)(=O)C[C@@H](NC(=O)OCc1cccnc1)C(=O)N[C@@H](Cc1cc(F)cc(F)c1)[C@H](O)CNCc1cccc(CC)c1"
  Measurement name: "pEC50"
  Readout value: 9.22

# input for lookup
Measured pEC50 of CCCCS(=O)(=O)C[C@@H](NC(=O)c1cnccn1)C(=O)N[C@@H](Cc1cc(F)cc(F)c1)[C@H](O)CNCc1cccc(CC)c1 : 9.70

----------
# Study system: Beta-secretase 1 (Homo sapiens)
# Assay remarks: Inhibition of BACE expressed in HEK293 cells
EC50 overview
Lab book: enter the figure in nM, no units written.

- Structure notation: "CCCCS(=O)(=O)C[C@@H](NC(=O)c1cc(C)n[nH]1)C(=O)N[C@@H](Cc1cc(F)cc(F)c1)[C@H](O)CNCc1cccc(CC)c1"
  Readout value: 4
- Structure notation: "CCCC(CCC)S(=O)(=O)C[C@@H](NC(=O)OCc1ccncc1)C(=O)N[C@@H](Cc1cc(F)cc(F)c1)[C@H](O)CNCc1cccc(CC)c1"
  Readout value: 5
- Structure notation: "CCCC(CCC)S(=O)(=O)C[C@@H](NC(=O)c1cccnc1)C(=O)N[C@@H](Cc1cc(F)cc(F)c1)[C@H](O)CNCc1cccc(CC)c1"
  Readout value: 1

# input for lookup
Bench note, Beta-secretase 1 (Homo sapiens): entry CCCC(CCC)S(=O)(=O)C[C@@H](NC(=O)c1cccc(Cl)c1)C(=O)N[C@@H](Cc1cc(F)cc(F)c1)[C@H](O)CNCc1cccc(CC)c1 , its EC50 = 48

----------
# Study system: Beta-secretase 1 (Homo sapiens, UniProt P56817)
# Assay remarks: Inhibition of BACE expressed in HEK293 cells
EC50 overview
Lab book: enter the figure in nM, no units written.

Measured EC50 of CCCCS(=O)(=O)C[C@@H](NC(=O)c1cccnc1)C(=O)N[C@@H](Cc1cc(F)cc(F)c1)[C@H](O)CNCc1cccc(CC)c1 : 1

Measured EC50 of CCCCS(=O)(=O)C[C@@H](NC(=O)C1CC1)C(=O)N[C@@H](Cc1cc(F)cc(F)c1)[C@H](O)CNCc1cccc(CC)c1 : 4

Measured EC50 of CCCC(CCC)S(=O)(=O)C[C@@H](NC(=O)c1ccccc1C)C(=O)N[C@@H](Cc1cc(F)cc(F)c1)[C@H](O)CNCc1cccc(CC)c1 : 59

Measured EC50 of CCCCS(=O)(=O)C[C@@H](NC(=O)OCCNC(C)=O)C(=O)N[C@@H](Cc1cc(F)cc(F)c1)[C@H](O)CNCc1cccc(CC)c1 : 12

----------
# Study system: UniProtKB P56817
# Assay remarks: Inhibition of BACE expressed in HEK293 cells
Measurement name: pEC50
Lab note: report pEC50 as minus log10 of the concentration in molar units, number only.

Below, each entry is followed by its recorded pEC50 result.
- Compound: "CCCCS(=O)(=O)C[C@@H](NC(=O)SC1CCOC1)C(=O)N[C@@H](Cc1cc(F)cc(F)c1)[C@H](O)CNCc1cccc(CC)c1 (some centres not stated)"
  pEC50: 8.40
- Compound: "CCCC(CCC)S(=O)(=O)C[C@@H](NC(=O)c1ccccc1)C(=O)N[C@@H](Cc1cc(F)cc(F)c1)[C@H](O)CNCc1cccc(CC)c1"
  pEC50: 7.85
- Compound: "CCCCS(=O)(=O)C[C@@H](NC(C)=O)C(=O)N[C@@H](Cc1cc(F)cc(F)c1)[C@H](O)CNCc1cccc(CC)c1"
  pEC50: 8.22
- Compound: "CCCCS(=O)(=O)C[C@@H](NC(=O)c1ccncc1)C(=O)N[C@@H](Cc1cc(F)cc(F)c1)[C@H](O)CNCc1cccc(CC)c1"
  pEC50: 9.00
- Compound: "CCCC(CCC)S(=O)(=O)C[C@@H](NC(=O)OC)C(=O)N[C@@H](Cc1cc(F)cc(F)c1)[C@H](O)CNCc1cccc(CC)c1"
  pEC50: 8.70
- Compound: "CCCCS(=O)(=O)C[C@@H](NC(=O)c1ncc[nH]1)C(=O)N[C@@H](Cc1cc(F)cc(F)c1)[C@H](O)CNCc1cccc(CC)c1"
  pEC50: 8.40

# input for lookup
Bench note, UniProtKB P56817: entry CCCC(CCC)S(=O)(=O)C[C@@H](NC(=O)c1ccc(OC)cc1)C(=O)N[C@@H](Cc1cc(F)cc(F)c1)[C@H](O)CNCc1cccc(CC)c1 , its pEC50 = 7.96

----------
Measurement record for Beta-secretase 1 (Homo sapiens); quantity recorded: pIC50.
Lab note: report pIC50 as minus log10 of the concentration in molar units, number only.

Below, each entry is followed by its recorded pIC50 result.
- Molecule: "CCCCS(=O)(=O)C[C@@H](NC(C)=O)C(=O)N[C@@H](Cc1cc(F)cc(F)c1)[C@H](O)CNCc1cccc(CC)c1"
  pIC50: 7.89
- Molecule: "CCCCS(=O)(=O)C[C@@H](NC(=O)SC1CCOC1)C(=O)N[C@@H](Cc1cc(F)cc(F)c1)[C@H](O)CNCc1cccc(CC)c1 (stereo partly drawn)"
  pIC50: 7.82
- Molecule: "CCCCS(=O)(=O)C[C@@H](NC(=O)c1ncc[nH]1)C(=O)N[C@@H](Cc1cc(F)cc(F)c1)[C@H](O)CNCc1cccc(CC)c1"
  pIC50: 8.40

Bench note, Beta-secretase 1 (Homo sapiens): entry CCCCS(=O)(=O)C[C@@H](NC(=O)OC)C(=O)N[C@@H](Cc1cc(F)cc(F)c1)[C@H](O)CNCc1cccc(CC)c1 , its pIC50 = 8.40

Bench note, Beta-secretase 1 (Homo sapiens): entry CCCCS(=O)(=O)C[C@@H](NC(=O)OCCNC(C)=O)C(=O)N[C@@H](Cc1cc(F)cc(F)c1)[C@H](O)CNCc1cccc(CC)c1 , its pIC50 = 7.57

----------
# Study system: Beta-secretase 1 (Homo sapiens, UniProt P56817)
The label is True for IC50 below 5 nM and False for IC50 equal to or exceeding 5 nM.

Q: Lab note: IC50 threshold 5 nM. Does this compound come in strictly under it? CCCCS(=O)(=O)CC(NC(=O)OCCC#N)C(=O)N[C@@H](Cc1cc(F)cc(F)c1)[C@H](O)CNCc1cccc(CC)c1 (stereo partly drawn)
Result: False

Q: Lab note: IC50 threshold 5 nM. Does this compound come in strictly under it? CCCCS(=O)(=O)C[C@@H](NC(=O)c1cccnc1)C(=O)N[C@@H](Cc1cc(F)cc(F)c1)[C@H](O)CNCc1cccc(CC)c1
Result: True

Q: Lab note: IC50 threshold 5 nM. Does this compound come in strictly under it? CCCC(CCC)S(=O)(=O)C[C@@H](NC(=O)c1ccccc1C)C(=O)N[C@@H](Cc1cc(F)cc(F)c1)[C@H](O)CNCc1cccc(CC)c1
Result: False

Q: Lab note: IC50 threshold 5 nM. Does this compound come in strictly under it? CCCC(CCC)S(=O)(=O)C[C@@H](NC(=O)OC)C(=O)N[C@@H](Cc1cc(F)cc(F)c1)[C@H](O)CNCc1cccc(CC)c1
Result: True

Q: Lab note: IC50 threshold 5 nM. Does this compound come in strictly under it? CCCCS(=O)(=O)C[C@@H](NC(=O)OCc1cccnc1)C(=O)N[C@@H](Cc1cc(F)cc(F)c1)[C@H](O)CNCc1cccc(CC)c1
Result: False

Q: Lab note: IC50 threshold 5 nM. Does this compound come in strictly under it? CCCC(CCC)S(=O)(=O)C[C@@H](NC(=O)c1cccnc1)C(=O)N[C@@H](Cc1cc(F)cc(F)c1)[C@H](O)CNCc1cccc(CC)c1
Result: True
